Experiment: PAMPA (parallel artificial membrane permeability assay)
Type: in vitro ADME
Conditions: PAMPA, pH 6.5
Starred links: 1 amine or outer side, 2 acyl side, 3 side chain; linkers in the order of their positions; H or OH if unused. Positions of bridges follow the written chain, without caps; N, C: chain ends. Non-standard residues stand in square brackets, D forms with d. Residues, ends and D or L forms follow the SMILES beside them. *: point of attachment. NMeF = CN[C@@H](Cc1ccccc1)C(=O)O; NMeGABA = CN(CCCC(=O)[*:2])[*:1]; NMeI = CC[C@H](C)[C@H](NC)C(=O)O; NMeL = CN[C@@H](CC(C)C)C(=O)O; NMeA = CN[C@@H](C)C(=O)O; Piperidide = C1CCN(*)CC1; dNMeA = CN[C@H](C)C(=O)O; β3hA = C[C@H](N)CC(=O)O; tBu = CC(C)(C)*
Reported Papp at 18 hours, 50 µM values are given for each entry in this list.
Express your answer in ×10⁻⁶ cm/s, writing the number without its unit.

# count of solved cases: 2
molecule	u	Papp at 18 hours, 50 µM
CC[C@H](C)[C@@H]1NC(=O)[C@H](C)N(C)C(=O)[C@@H](C)N(C)C(=O)C[C@H](C)NC(=O)[C@H](CC(C)C)N(C)C(=O)[C@H](C)N(C)C(=O)[C@H](Cc2ccccc2)N(C)C(=O)[C@H]([C@@H](C)O)NC(=O)[C@H](Cc2ccccc2)N(C)C(=O)[C@H](CC(C)C)N(C)C1=O [DP-783] (cyclo(I[NMeL][NMeF]T[NMeF][NMeA][NMeL][β3hA][dNMeA][NMeA]))	×10⁻⁶ cm/s	31
CC[C@H](C)[C@@H]1NC(=O)[C@H](CC(C)C)N(C)C(=O)CCCN(C)C(=O)C[C@@H](C(=O)N2CCCCC2)NC(=O)[C@H](CC(C)C)N(C)C(=O)[C@H](C)N(C)C(=O)[C@H]([C@@H](C)O)NC(=O)[C@H](CC(C)C)N(C)C(=O)[C@H](COC(C)(C)C)NC(=O)[C@H](Cc2ccccc2)N(C)C(=O)[C@H](Cc2ccccc2)N(C)C1=O [DP-114] ([NMeGABA][NMeL]I[NMeF][NMeF]S(tBu)[NMeL]T[NMeA][NMeL]D-Piperidide; lactam N-11)	×10⁻⁶ cm/s	44

// next item, Papp at 18 hours, 50 µM requested
So what does the record say about Papp at 18 hours, 50 µM for CC[C@H](C)[C@H]1C(=O)NCC(=O)N[C@@H]([C@@H](C)O)C(=O)N2CCC[C@H]2C(=O)N[C@@H](Cc2ccccc2)C(=O)N(C)[C@@H](CC(C)C)C(=O)N[C@H](C(=O)N2CCCCC2)CC(=O)N[C@H](C(C)C)C(=O)N[C@@H](Cc2ccccc2)C(=O)N(C)[C@@H](CC(C)C)C(=O)N[C@@H](CC(C)C)C(=O)N1C [DP-231] ([dV]F[NMeL]L[NMeI]GTPF[NMeL]D-Piperidide; lactam N-11) ? 18
